What half-life was measured for each of the following?
test: Liver microsomal stability, monkey; format: in vitro ADME, cynomolgus monkey; conditions: cynomolgus monkey, microsomes

May I ask what half-life has been recorded for "Cc1n[nH]c(C)c1N1CCN(c2cc(-c3nn[nH]n3)ccc2F)CC1" ?
< 1 h

May I ask what half-life has been recorded for "Cc1n[nH]c(C)c1N1CCN(c2cc(C(=O)O)ccc2F)CC1" ?
> 1 h

May I ask what half-life has been recorded for Cc1ccc(C(=O)O)cc1N1CCN(c2c(C)n[nH]c2C)CC1 [20c] ?
> 1 h

May I ask what half-life has been recorded for Cc1n[nH]c(C)c1N1CCN(c2cc(C(=O)O)ccc2C(F)(F)F)CC1 [20d] ?
> 1 h

###

experiment: Liver microsomal stability, human; type: in vitro ADME; conditions: microsomes
Quantity Kind: microsomal CLint (µL/min/mg)
# unit: µL/min/mg | format: bare number

May I ask what microsomal CLint has been recorded for "Cc1n[nH]c(C)c1N1CCN(c2cc(-c3nn[nH]n3)ccc2F)CC1" ?
18.4

###

biological target: CYP2C9 (Homo sapiens); test: CYP inhibition 2C9; format: in vitro ADME
Sequence (P11712 whole entry): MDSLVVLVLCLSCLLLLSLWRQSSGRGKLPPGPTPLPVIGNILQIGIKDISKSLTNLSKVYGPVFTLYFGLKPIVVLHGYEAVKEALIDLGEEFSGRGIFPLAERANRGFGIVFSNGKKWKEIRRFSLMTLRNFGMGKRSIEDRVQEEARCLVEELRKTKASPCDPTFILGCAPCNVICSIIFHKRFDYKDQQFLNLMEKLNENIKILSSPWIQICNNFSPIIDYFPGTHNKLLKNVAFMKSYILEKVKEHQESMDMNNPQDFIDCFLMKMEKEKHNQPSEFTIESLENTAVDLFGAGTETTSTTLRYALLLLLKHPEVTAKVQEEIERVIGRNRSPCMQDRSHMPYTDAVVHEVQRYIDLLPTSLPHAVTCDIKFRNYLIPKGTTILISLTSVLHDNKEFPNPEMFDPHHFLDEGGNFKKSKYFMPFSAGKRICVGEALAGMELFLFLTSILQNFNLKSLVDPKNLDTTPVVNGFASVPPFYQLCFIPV
Quantity Kind: inhibition at 10 µM (%)
# unit: % | format: bare number

May I ask what inhibition at 10 µM has been recorded for COc1ccc(C(=O)O)cc1N1CCN(c2c(C)n[nH]c2C)CC1 [20b] ?
1.4

###

experiment: Kinetic solubility in PBS; type: physicochemical; details: pH 7.4
Quantity Kind: solubility

May I ask what solubility has been recorded for COc1ccc(C(=O)O)cc1N1CCN(c2c(C)n[nH]c2C)CC1 [20b] ?
≥ 200 µM

###

test: Liver microsomal stability, human; assay type: in vitro ADME; conditions: microsomes
Quantity Kind: half-life

May I ask what half-life has been recorded for Cc1n[nH]c(C)c1N1CCN(c2cc(C(=O)O)ccc2C(F)(F)F)CC1 [20d] ?
> 60 min

May I ask what half-life has been recorded for Cc1ccc(C(=O)O)cc1N1CCN(c2c(C)n[nH]c2C)CC1 [20c] ?
> 60 min

May I ask what half-life has been recorded for Cc1n[nH]c(C)c1N1CCN(c2cc(C(=O)O)ccc2F)CC1 [compound 14] ?
> 60 min

May I ask what half-life has been recorded for Cc1n[nH]c(C)c1N1CCN(c2cc(-c3nn[nH]n3)ccc2F)CC1 [compound 54] ?
75.4 min

###

assay: Liver microsomal stability, rat; assay type: in vitro ADME; details: microsomes
Quantity Kind: half-life

May I ask what half-life has been recorded for Cc1n[nH]c(C)c1N1CCN(c2cc(-c3nn[nH]n3)ccc2F)CC1 [compound 54] ?
< 1 h

May I ask what half-life has been recorded for Cc1ccc(C(=O)O)cc1N1CCN(c2c(C)n[nH]c2C)CC1 [20c] ?
> 1 h

May I ask what half-life has been recorded for Cc1n[nH]c(C)c1N1CCN(c2cc(C(=O)O)ccc2C(F)(F)F)CC1 [20d] ?
> 1 h

May I ask what half-life has been recorded for Cc1n[nH]c(C)c1N1CCN(c2cc(C(=O)O)ccc2F)CC1 [compound 14] ?
> 1 h

###

assay: Liver microsomal stability, rat; format: in vitro ADME; details: liver microsomes
Quantity Kind: remaining at 0.5 h (%)
# unit: % | format: bare number

May I ask what remaining at 0.5 h has been recorded for COc1ccc(C(=O)O)cc1N1CCN(c2c(C)n[nH]c2C)CC1 [20b] ?
101

###

test: Plasma protein binding, rat; format: in vitro ADME
Quantity Kind: fraction unbound
Form: value (number only, do not type unit).

May I ask what fraction unbound has been recorded for COc1ccc(C(=O)O)cc1N1CCN(c2c(C)n[nH]c2C)CC1 [20b] ?
0.22

###

What half-life was measured for each of the following?
test: Liver microsomal stability, mouse; assay type: in vitro ADME; details: liver microsomes

May I ask what half-life has been recorded for COc1ccc(C(=O)O)cc1N1CCN(c2c(C)n[nH]c2C)CC1 [20b] ?
> 1 h

May I ask what half-life has been recorded for Cc1n[nH]c(C)c1N1CCN(c2cc(C(=O)O)ccc2Cl)CC1 [20e] ?
> 1 h

May I ask what half-life has been recorded for Cc1cc(F)c(N2CCN(c3c(C)n[nH]c3C)CC2)cc1C(=O)O [20i] ?
> 1 h

###

experiment: Liver microsomal stability, human; format: in vitro ADME; conditions: liver microsomes
Quantity Kind: remaining at 0.5 h (%)
# unit: % | format: bare number

May I ask what remaining at 0.5 h has been recorded for COc1ccc(C(=O)O)cc1N1CCN(c2c(C)n[nH]c2C)CC1 [20b] ?
108

###

test: Liver microsomal stability, human; type: in vitro ADME; conditions: liver microsomes
What half-life was measured for each of the following?

May I ask what half-life has been recorded for Cc1cc(F)c(N2CCN(c3c(C)n[nH]c3C)CC2)cc1C(=O)O [20i] ?
> 1 h

May I ask what half-life has been recorded for COc1ccc(C(=O)O)cc1N1CCN(c2c(C)n[nH]c2C)CC1 [20b] ?
> 1 h

May I ask what half-life has been recorded for Cc1n[nH]c(C)c1N1CCN(c2cc(C(=O)O)ccc2Cl)CC1 [20e] ?
> 1 h

###

What half-life was measured for each of the following?
assay: Liver microsomal stability, mouse; assay type: in vitro ADME; settings: microsomes

May I ask what half-life has been recorded for Cc1n[nH]c(C)c1N1CCN(c2cc(-c3nn[nH]n3)ccc2F)CC1 [compound 54] ?
< 1 h

May I ask what half-life has been recorded for Cc1n[nH]c(C)c1N1CCN(c2cc(C(=O)O)ccc2C(F)(F)F)CC1 [20d] ?
> 1 h

May I ask what half-life has been recorded for Cc1n[nH]c(C)c1N1CCN(c2cc(C(=O)O)ccc2F)CC1 [compound 14] ?
> 1 h

May I ask what half-life has been recorded for Cc1ccc(C(=O)O)cc1N1CCN(c2c(C)n[nH]c2C)CC1 [20c] ?
> 1 h

###

experiment: Plasma protein binding, human; assay type: in vitro ADME
Quantity Kind: fraction unbound
Form: value (number only, do not type unit).

May I ask what fraction unbound has been recorded for COc1ccc(C(=O)O)cc1N1CCN(c2c(C)n[nH]c2C)CC1 [20b] ?
0.25

###

assay: Liver microsomal stability, human; format: in vitro ADME; settings: liver microsomes
Quantity Kind: microsomal CLint

May I ask what microsomal CLint has been recorded for COc1ccc(C(=O)O)cc1N1CCN(c2c(C)n[nH]c2C)CC1 [20b] ?
< 23.1 µL/min/mg

###

target: UniProt P08684; test: CYP inhibition 3A4; type: in vitro ADME
Sequence (P08684 whole entry): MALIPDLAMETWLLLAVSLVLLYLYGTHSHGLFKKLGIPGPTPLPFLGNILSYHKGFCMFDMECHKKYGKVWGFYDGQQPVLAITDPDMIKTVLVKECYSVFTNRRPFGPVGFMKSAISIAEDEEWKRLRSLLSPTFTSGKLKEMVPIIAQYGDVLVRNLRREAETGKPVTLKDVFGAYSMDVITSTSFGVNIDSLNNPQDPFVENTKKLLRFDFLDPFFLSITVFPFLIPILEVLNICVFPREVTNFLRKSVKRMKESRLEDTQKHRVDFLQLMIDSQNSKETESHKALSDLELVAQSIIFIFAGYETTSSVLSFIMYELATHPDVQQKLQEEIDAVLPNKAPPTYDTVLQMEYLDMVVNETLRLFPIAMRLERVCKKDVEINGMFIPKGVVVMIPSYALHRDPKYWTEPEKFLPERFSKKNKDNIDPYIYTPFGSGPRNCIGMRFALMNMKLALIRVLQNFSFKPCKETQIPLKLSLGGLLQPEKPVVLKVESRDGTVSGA
Quantity Kind: inhibition at 10 µM (%)
# unit: % | format: bare number

# query: inhibition at 10 µM | item COc1ccc(C(=O)O)cc1N1CCN(c2c(C)n[nH]c2C)CC1 [20b] | system: UniProt P08684
19.6

###

experiment: Liver microsomal stability, monkey; format: in vitro ADME, cynomolgus monkey; settings: monkey, liver microsomes
Quantity Kind: remaining at 0.5 h (%)
# unit: % | format: bare number

May I ask what remaining at 0.5 h has been recorded for COc1ccc(C(=O)O)cc1N1CCN(c2c(C)n[nH]c2C)CC1 [20b] ?
102

###

assay: Liver microsomal stability, mouse; format: in vitro ADME; details: liver microsomes
Quantity Kind: remaining at 0.5 h (%)
# unit: % | format: bare number

May I ask what remaining at 0.5 h has been recorded for COc1ccc(C(=O)O)cc1N1CCN(c2c(C)n[nH]c2C)CC1 [20b] ?
102

###

assay: Liver microsomal stability, rat; assay type: in vitro ADME; conditions: liver microsomes
Quantity Kind: microsomal CLint

May I ask what microsomal CLint has been recorded for COc1ccc(C(=O)O)cc1N1CCN(c2c(C)n[nH]c2C)CC1 [20b] ?
< 23.1 µL/min/mg

###

What half-life was measured for each of the following?
assay: Liver microsomal stability, rat; format: in vitro ADME; settings: liver microsomes

May I ask what half-life has been recorded for Cc1cc(F)c(N2CCN(c3c(C)n[nH]c3C)CC2)cc1C(=O)O [20i] ?
> 1 h

May I ask what half-life has been recorded for COc1ccc(C(=O)O)cc1N1CCN(c2c(C)n[nH]c2C)CC1 [20b] ?
> 1 h

May I ask what half-life has been recorded for Cc1n[nH]c(C)c1N1CCN(c2cc(C(=O)O)ccc2Cl)CC1 [20e] ?
> 1 h
